- EXPERIMENT NOTES: Salt screen: physical stability under accelerated aging conditions (HT-XRPD)
- Format: physicochemical
- MEASUREMENT PARAMETERS: solid from 1-butanol; 40° C., 75% RH, two days; code+number = crystalline salt form, 0 = crystalline counter ion itself
MEASUREMENT LABEL: XRPD2: solid form after accelerated aging

// worked examples, XRPD2: solid form after accelerated aging included
| COMPOUND | RESULT |
| --- | --- |
| O=C(O)c1cc(O)ccc1O | Gen2 |
| N[C@@H](CC(=O)O)C(=O)O | Asp0 |
| N[C@@H](CCC(=O)O)C(=O)O | Gltm0 |
| O=C(O)C(O)c1ccccc1 (racemic) | Amorphous |
| O=C(O)CNC(=O)c1ccccc1 | Amorphous |
| O=C(O)[C@H](O)[C@@H](O)[C@H](O)[C@H](O)CO | Amorphous |
| O=C[C@H](O)[C@@H](O)[C@H](O)[C@H](O)C(=O)O | Amorphous |
| O=C(O)[C@H](O)[C@@H](O)C(=O)O [(+)-L-Tartaric acid] | Amorphous |
| Br [Hydrobromic acid] | Amorphous |
| Cl [Hydrochloric acid] | Amorphous |

Form: compound = `O=S(=O)(O)O` ; XRPD2: solid form after accelerated aging = Amorphous

Form: compound = `CS(=O)(=O)O` ; XRPD2: solid form after accelerated aging = Amorphous

Form: compound = `CC(=O)O` ; XRPD2: solid form after accelerated aging = Amorphous

Form: compound = `O=C(O)CCCC(=O)O` ; XRPD2: solid form after accelerated aging = Glut1
